# TESTED_SYSTEM: human epidermal growth factor receptor 2 (HER2) (human, UniProt P04626 23-1255)
# PROCEDURE_DETAILS: cell-based or functional assay
For each of the binders below, state its % cells killed (maximal), AU565 cells, anti-kappa-ETA'-conjugated antibody.

INSERT INTO measurements (binder, endpoint_value) VALUES
  ('HER2 antibody 050 (antibody, V domains shown) VH: EVQLLESGGGLVQPGGSLRLSCAASGFTFSSYAMNWVRQAPGKGLEWVSAISGRGGTTYYADSVKGRFTISRDNSKNTLYLQMSSLRAEDTAVYYCAKARANWDYFDYWGQGTLVTVSS VL: DIQMTQSPSSVSASVGDRVTITCRASQGISSWLAWYQHKPGKAPKLLIYAASILQSGVPSRFSGSGSGTDFTLTISSLQPEDFATYYCQQANSFPITFGQGTRLEIK', '52.4%'),
  ('HER2 antibody 159 (antibody, V domains shown) VH: EVQLVQSGAEVKKPGESLKISCKGSGYNFTSYWIGWVRQMPGKGLEWMGIIYPGDSDTRYSPSFQGQVTISADKSISTAYLQWSSLKASDTAMYYCARWGTYYDILTGYFNWFDPWGQGTLVTVSS VL: DIQMTQSPSSLSASVGDRVTITCRASQGISSWLAWYQQKPEKAPKSLIYAASSLQSGVPSRFSGSGSGTDFTLTISSLQPEDFATYYCQQYYIYPWTFGQGTKVEIK', '70.3%');

Moving on to another binder below.
Consider the binder shown here: HER2 antibody 169 (antibody, V domains shown) VH: QVQLVQSGAEVKKPGASVKVSCKASGYTFTNYGISWVRQAPGQGLEWMGWLSAYSGNTIYAQKLQGRVTMTTDTSTTTAYMELRSLRSDDTAVYYCARDRIVVRPDYFDYWGQGTLVTVSS VL: EIVLTQSPATLSLSPGERATLSCRASQSVSSYLAWYQQKPGQAPRLLIYDASNRATGIPARFSGSGSGTDFTLTISSLEPEDFAVYYCQQRSNWPRTFGQGTKVEIK What is its recorded % cells killed (maximal), AU565 cells, anti-kappa-ETA'-conjugated antibody?
49.9%

Hello, the source for this data is patent EP4520771A2, in case you need it.
